Biological target: VEGFR/KDR (Homo sapiens, UniProt P35968)
Sequence (P35968 806-1356): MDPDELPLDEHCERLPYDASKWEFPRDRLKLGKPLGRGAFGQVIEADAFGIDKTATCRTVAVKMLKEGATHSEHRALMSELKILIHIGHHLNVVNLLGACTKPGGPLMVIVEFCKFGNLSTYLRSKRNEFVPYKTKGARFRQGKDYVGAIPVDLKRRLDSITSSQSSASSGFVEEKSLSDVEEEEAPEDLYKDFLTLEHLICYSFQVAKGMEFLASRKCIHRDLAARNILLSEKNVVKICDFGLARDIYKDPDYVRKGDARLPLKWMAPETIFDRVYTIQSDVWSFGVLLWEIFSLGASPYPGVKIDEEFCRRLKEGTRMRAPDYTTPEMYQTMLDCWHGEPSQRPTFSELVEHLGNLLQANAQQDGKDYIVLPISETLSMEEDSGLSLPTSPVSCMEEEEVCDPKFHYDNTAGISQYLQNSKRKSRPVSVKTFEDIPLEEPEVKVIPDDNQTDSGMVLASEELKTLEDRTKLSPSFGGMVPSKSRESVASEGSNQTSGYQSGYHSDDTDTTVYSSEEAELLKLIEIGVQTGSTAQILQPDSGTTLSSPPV
Test: VEGFR/KDR kinase inhibition, DELFIA assay
Details: ATP 0.6 uM (2x Km), enzyme 5 nM
pIC50: −log10 of the molar value.
The following molecules are listed with their measured pIC50 values.

[
  {
    "molecule": "CN(C(=O)NCC(=O)O)C1CCN(Cc2ccc(-c3cc4nccc(Oc5ccc(NC(=O)NC6CC6)cc5F)c4s3)nc2)CC1",
    "result": "> 7.30"
  },
  {
    "molecule": "COCCN(Cc1ccc(-c2cc3nccc(Oc4ccc(NC(=O)NC5CC5)cc4F)c3s2)cc1)C(=O)NC1CCCC1",
    "result": "> 7.30"
  }
]

**Q:** I'd like to know its pIC50. The molecule in question is `O=C(Nc1ccc(Oc2ccnc3cc(-c4ccc(CN5CCN(C(=O)CCCC[C@H]6SC[C@H]7NC(=O)N[C@H]76)CC5)cn4)sc23)c(F)c1)NC1CC1`
**A:** > 7.30

**Q:** I'd like to know its pIC50. The molecule in question is `CC1(C)CN(Cc2ccc(-c3cc4nccc(Oc5ccc(NC(=O)NC6CC6)cc5F)c4s3)nc2)CCN1C(=O)CO`
**A:** > 7.30

**Q:** I'd like to know its pIC50. The molecule in question is `Cn1c(C(=O)NCCCN2CCOCC2)cnc1-c1cc2nccc(Oc3ccc(NC(=O)NC4CC4)cc3F)c2s1`
**A:** > 7.30

**Q:** I'd like to know its pIC50. The molecule in question is `Cn1c(C(=O)NCCN2CCOCC2)cnc1-c1cc2nccc(Oc3ccc(NC(=O)NC4CC4)cc3F)c2s1`
**A:** > 7.30

**Q:** I'd like to know its pIC50. The molecule in question is `COC(=O)COC1CCN(Cc2ccc(-c3cc4nccc(Oc5ccc(NC(=O)NC6CC6)cc5F)c4s3)nc2)CC1`
**A:** > 7.30

**Q:** I'd like to know its pIC50. The molecule in question is `CC(C)NC(=O)Nc1ccc(Oc2ccnc3cc(-c4ccc(CN5CCCC5=O)cc4)sc23)c(F)c1`
**A:** 7.00 to 7.30

**Q:** I'd like to know its pIC50. The molecule in question is `N#CCCN1CCN(Cc2ccc(-c3cc4nccc(Oc5ccc(NC(=O)NC6CC6)cc5F)c4s3)nc2)CC1`
**A:** > 7.30

**Q:** I'd like to know its pIC50. The molecule in question is `O=C(Nc1ccc(Oc2ccnc3cc(C#CCN4CCOCC4)sc23)c(F)c1)Nc1ccc(F)cc1F`
**A:** 6.60 to 7.00

**Q:** I'd like to know its pIC50. The molecule in question is `COCCN(Cc1cnc(-c2cc3nccc(Oc4ccc(NC(=O)Nc5ccc(F)cc5F)cc4F)c3s2)n1C)C(C)=O`
**A:** > 7.30

**Q:** I'd like to know its pIC50. The molecule in question is `N[C@H]1CCN(Cc2ccc(-c3cc4nccc(Oc5ccc(NC(=O)NC6CC6)cc5F)c4s3)nc2)C1=O`
**A:** > 7.30

**Q:** I'd like to know its pIC50. The molecule in question is `O=C(Nc1ccc(Oc2ccnc3cc(-c4ccc(C(=O)N5CCN(CCO)CC5)cn4)sc23)c(F)c1)NC1CC1`
**A:** > 7.30

**Q:** I'd like to know its pIC50. The molecule in question is O=C(Nc1ccc(Oc2ccnc3cc(-c4ccc(C(=O)N5CCCC(C(=O)O)C5)cn4)sc23)c(F)c1)NC1CC1 (stereo not shown)
**A:** > 7.30

**Q:** I'd like to know its pIC50. The molecule in question is `CCOC(=O)Cc1csc(NC(=O)Cn2cc(-c3cc4nccc(Oc5ccc(NC(=O)NC6CC6)cc5F)c4s3)nn2)n1`
**A:** > 7.30

**Q:** I'd like to know its pIC50. The molecule in question is `COCCN(Cc1ccc(-c2cc3nccc(Oc4ccc(NC(=O)NC5CC5)nc4)c3s2)nc1)C(=O)CO`
**A:** 6.60 to 7.00

**Q:** I'd like to know its pIC50. The molecule in question is `O=C(Nc1ccc(Oc2ccnc3cc(-c4ccc(C(=O)O)cn4)sc23)c(F)c1)NC1CC1`
**A:** > 7.30

**Q:** I'd like to know its pIC50. The molecule in question is `C[C@H](CN1CCN(Cc2ccc(-c3cc4nccc(Oc5ccc(NC(=O)NC6CC6)cc5F)c4s3)nc2)CC1)C(=O)O`
**A:** > 7.30

**Q:** I'd like to know its pIC50. The molecule in question is O=C(Nc1ccc(Oc2ccnc3cc(-c4ccc(C(=O)N5CCOC(C(=O)O)C5)cn4)sc23)c(F)c1)NC1CC1 (stereo not shown)
**A:** > 7.30

**Q:** I'd like to know its pIC50. The molecule in question is `O=C(Nc1ccc(Oc2ccnc3cc(-c4ccc(CN5CCN(CCN6CCOCC6)CC5)cn4)sc23)c(F)c1)NC1CC1`
**A:** > 7.30

**Q:** I'd like to know its pIC50. The molecule in question is COC(=O)CC(C)N1CCN(Cc2ccc(-c3cc4nccc(Oc5ccc(NC(=O)NC6CC6)cc5F)c4s3)nc2)CC1 (stereo not shown)
**A:** > 7.30

**Q:** I'd like to know its pIC50. The molecule in question is `O=C(Nc1ccc(Oc2ccnc3cc(-c4ccc(CN5CCCC5=O)nc4)sc23)c(F)c1)NC1CC1`
**A:** > 7.30
